B1: RAB22A (parent)
chain: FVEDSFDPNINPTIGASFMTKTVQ

Variants of: B1
TEST: protein stability index of a GFP-peptide fusion (GPS, HEK-293T) (PSI 1-6); higher = more stable;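 further: lentivirally expressed fusions sorted by FACS into six bins by GFP to DsRed ratio, PSI derived from sequencing read proportions per bin multiplied by bin number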
MEASUREMENT_CONDITIONS: c terminus: a fixed tail appended
PROPERTY: protein stability index

>>> numeric_readout("F1Q")
4.25
>>> numeric_readout("S5N")
2.64
>>> numeric_readout("T22V")
2.2
>>> numeric_readout("I14G")
2.59
>>> numeric_readout("I14V")
2.69
>>> numeric_readout("F6W")
1.76
>>> numeric_readout("T20A")
2.14
>>> numeric_readout("A16D")
2.55
>>> numeric_readout("S5C")
2.03
>>> numeric_readout("K21G")
2.29
>>> numeric_readout("M19W")
3.23
>>> numeric_readout("K21P")
2.74
>>> numeric_readout("I14E")
3.21
>>> numeric_readout("T22A")
2.43
>>> numeric_readout("N11W")
2.41
>>> numeric_readout("N9T")
2.26
>>> numeric_readout("V2Q")
3.8
>>> numeric_readout("T22H")
2.09
>>> numeric_readout("F1H")
4.25
>>> numeric_readout("T13E")
2.52
>>> numeric_readout("T22L")
1.78
>>> numeric_readout("V2M")
3.62
>>> numeric_readout("P12S")
2.4
>>> numeric_readout("G15V")
1.87
>>> numeric_readout("A16N")
2.74
>>> numeric_readout("E3Y")
1.75
>>> numeric_readout("T22S")
2.26
>>> numeric_readout("Q24T")
2.01
>>> numeric_readout("G15S")
2.4
>>> numeric_readout("S17F")
2.14
>>> numeric_readout("T13G")
2.15
>>> numeric_readout("D4P")
1.78
